Where do these numbers come from? They come from patent US20090298167A1.

tested-target: T1, rat IL-21R expressed on cells (rat)
T1 construct: whole, on cells; Transiently transfected CHO-PA-Dukx cells
experimental-details: cell ELISA on transfected CHO cells, 13 nM IgG
Reported values of A450 at 13 nM Ab in cell ELISA for individual entries
Reply with just the number (in A450).

These solved cases illustrate the format of a correct answer.
{"binder": "AbM (antibody, human IgG1, V domains shown, Full-length human IgG1 / human lambda, transient, conditioned medium; Framework limits derived; also called VH6/VL13) VH: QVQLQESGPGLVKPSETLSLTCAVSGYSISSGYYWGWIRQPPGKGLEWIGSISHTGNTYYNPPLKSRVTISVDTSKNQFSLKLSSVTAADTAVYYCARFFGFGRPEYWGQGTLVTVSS VL: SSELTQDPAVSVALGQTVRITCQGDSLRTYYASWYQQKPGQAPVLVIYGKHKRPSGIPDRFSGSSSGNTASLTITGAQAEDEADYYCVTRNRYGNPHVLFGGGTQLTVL", "A450 at 13 nM Ab in cell ELISA [A450]": 0.78}
{"binder": "AbE (antibody, human IgG1, V domains shown, Full-length human IgG1 / human lambda, transient, conditioned medium; Framework limits derived; also called VHP/VL14) VH: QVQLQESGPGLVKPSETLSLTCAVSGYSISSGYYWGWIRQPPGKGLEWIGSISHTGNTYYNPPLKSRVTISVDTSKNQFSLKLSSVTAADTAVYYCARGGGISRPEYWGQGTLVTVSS VL: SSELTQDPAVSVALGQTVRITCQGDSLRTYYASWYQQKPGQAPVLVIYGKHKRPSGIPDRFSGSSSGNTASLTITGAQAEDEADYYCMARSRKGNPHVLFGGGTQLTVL", "A450 at 13 nM Ab in cell ELISA [A450]": 1.11}

Notebook: AbB (antibody, human IgG1, V domains shown, Full-length human IgG1 / human lambda, transient, conditioned medium; Framework limits derived; also called VHP/VL3) VH: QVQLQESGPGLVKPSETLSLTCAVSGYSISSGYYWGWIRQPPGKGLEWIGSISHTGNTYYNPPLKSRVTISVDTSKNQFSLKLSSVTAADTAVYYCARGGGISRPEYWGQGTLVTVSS VL: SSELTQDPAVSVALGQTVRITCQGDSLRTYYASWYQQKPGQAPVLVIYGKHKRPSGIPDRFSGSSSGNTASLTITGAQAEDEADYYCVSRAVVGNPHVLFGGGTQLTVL , A450 at 13 nM Ab in cell ELISA read as 1.09
